Tested on: TK-10
Experiment Summary: NCI tumour cell line growth inhibition, 48 h
Active and inactive are the calls of the source. No stated cut-off is given here; in the data, active = GI50 up to about 1.1 µM and inactive = higher.
Measurement Kind: GI50

Solved entries (count: 5):
>>> result("COc1ccc(Nc2c(C#N)c3n(c4ccccc24)c2ccccc2[n+]3C)cc1OC")
"2.56 µM (inactive)"
>>> result("O=C1C2Cc3ccccc3CN2C(=O)N1CCN1CCCC1 (stereo not given)")
"> 100 µM (inactive)"
>>> result("Cc1cc2cc3c(cc2c(-c2ccc([N+](=O)[O-])cc2)n1)OCO3")
"43.9 µM (inactive)"
>>> result("CCCCCCCCCC[S+]([O-])CC(CO)NC(=O)/C=C/c1c(C)nc(O)nc1O (stereo not given)")
"1.76 µM (inactive)"
>>> result("c1ccc2c(c1)cc1n2CCc2c-1[nH]c1ccccc21")
"> 10 µM (inactive)"

Report GI50 for every entry below.
1. O=C1CCC[C@]2(CCC[C@@H](O)C2)N1
2. O=C1CCC2(c3ccc(F)cc3)Nc3ccccc3N12 (stereo not given)
3. CC1(C)CC(=O)C2=C(C1)OC1(CC2c2ccc(Cl)cc2)CC(c2ccc(Cl)cc2)C2=C(CC(C)(C)CC2=O)O1 (stereo not given)

A:
1. > 100 µM (inactive)
2. > 100 µM (inactive)
3. 32.4 µM (inactive)

Report GI50 for every entry below.
1. COc1cc(CC2c3cc(OC)c(OC)cc3CCN2C)c(C(=O)O)cc1OC (stereo not given)
2. CCOC(=O)[C@H]1Nc2ccc([N+](=O)[O-])cc2C2c3ccccc3CC21 (stereo not given in full)

A:
1. > 100 µM (inactive)
2. 27.4 µM (inactive)
